Listing of recorded recombinant UMI read abundance (log10) by entry.
Assay: recombinant UMI read abundance after kanamycin selection (control-corrected) (log10(CPM+1)); higher = more efficient recombination; extreme values may be limits of the assay; sequences stand for … in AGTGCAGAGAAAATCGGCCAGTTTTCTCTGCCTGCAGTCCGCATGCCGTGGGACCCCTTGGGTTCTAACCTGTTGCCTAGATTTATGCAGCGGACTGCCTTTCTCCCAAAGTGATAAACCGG…AGGTTGGTTTCACT; site = the 11-nt donor;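 further: IS621 bridge recombinase in Escherichia coli cells against a fixed T5 target plasmid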
No unit in the answer, only the number.

TAGAATGCATGGACCGGTTTTCCCGGTAATCCGTATTTGCA (site TAGAATTCTTG) :: 0.905
TTAGTTGCATGGACCGGTTTTCCCGGTAATCCGTATTTGTG (site TTAGATGCTCA) :: 0.0164
CCCGGTCCATGGACCGGTTTTCCCGGTAATCCGTATTTGCA (site CCAGGTCCTTG) :: 0
GTTAAAACATGGACCGGTTTTCCCGGTAATCCGTATTTGGC (site GTTATAACTGC) :: 0
AAGGTAACATGGACCGGTTTTCCCGGTAATCCGTATTTGCT (site AACGTAACTAG) :: 0.731

Reported recombinant UMI read abundance (log10) for GCGAAGCCATGGACCGGTTTTCCCGGTAATCCGTATTTGCG (site GCGAAGCCTCA) was 0.0182

Notebook: GTGGGCGCATGGACCGGTTTTCCCGGTAATCCGTATTTGAC (site GTGGGCGCTGT) , recombinant UMI read abundance (log10) read as 2.43

Lab note: measured recombinant UMI read abundance (log10) of GACTGGCCATGGACCGGTTTTCCCGGTAATCCGTATTTGCA (site GAATGGCCTTG) was 0

recombinant UMI read abundance (log10) in this record for CAATCGTCATGGACCGGTTTTCCCGGTAATCCGTATTTGCT (site CAATCGTCTAG) : 2.84

ATAAGGCCATGGACCGGTTTTCCCGGTAATCCGTATTTGAC (site ATAAGGCCTGT) has a reported recombinant UMI read abundance (log10) of 0

recombinant UMI read abundance (log10) in this record for CCGTTAGCATGGACCGGTTTTCCCGGTAATCCGTATTTGTG (site GCGTTAGCTCA) : 0

Input GCACATCCATGGACCGGTTTTCCCGGTAATCCGTATTTGAC (site GCACATCCTGT) . Output recombinant UMI read abundance (log10): 0

recombinant UMI read abundance (log10) recorded for this sequence, ACCCTTTCATGGACCGGTTTTCCCGGTAATCCGTATTTGAC (site ATCCTTTCTGT) , is 0

Reported recombinant UMI read abundance (log10) for TCCACCGCATGGACCGGTTTTCCCGGTAATCCGTATTTGCT (site TCCACCGCTGG) was 0

# recombinant UMI read abundance (log10) (sequence: GACGGCCCATGGACCGGTTTTCCCGGTAATCCGTATTTGTT (site TACGGCCCTAA) ) is 0.00762

Note to self: recombinant UMI read abundance (log10) recorded for GCCATGCCATGGACCGGTTTTCCCGGTAATCCGTATTTGTA (site GCCATGCCTTA) was 1.26

Entry under test: GGAGTTGCATGGACCGGTTTTCCCGGTAATCCGTATTTGGT (site GGAGTTGCTAC) . Its recombinant UMI read abundance (log10) was 0.861

Entry under test: AGATCCCCATGGACCGGTTTTCCCGGTAATCCGTATTTGTA (site AGATCCCCTTA) . Its recombinant UMI read abundance (log10) was 0.595
